Target System: panel of more than 300 wild-type and mutant kinases (313 kinase panel) (Homo sapiens, UniProt P00533, L858R/T790M)
Sequence (P00533 25-1210 T790M/L858R): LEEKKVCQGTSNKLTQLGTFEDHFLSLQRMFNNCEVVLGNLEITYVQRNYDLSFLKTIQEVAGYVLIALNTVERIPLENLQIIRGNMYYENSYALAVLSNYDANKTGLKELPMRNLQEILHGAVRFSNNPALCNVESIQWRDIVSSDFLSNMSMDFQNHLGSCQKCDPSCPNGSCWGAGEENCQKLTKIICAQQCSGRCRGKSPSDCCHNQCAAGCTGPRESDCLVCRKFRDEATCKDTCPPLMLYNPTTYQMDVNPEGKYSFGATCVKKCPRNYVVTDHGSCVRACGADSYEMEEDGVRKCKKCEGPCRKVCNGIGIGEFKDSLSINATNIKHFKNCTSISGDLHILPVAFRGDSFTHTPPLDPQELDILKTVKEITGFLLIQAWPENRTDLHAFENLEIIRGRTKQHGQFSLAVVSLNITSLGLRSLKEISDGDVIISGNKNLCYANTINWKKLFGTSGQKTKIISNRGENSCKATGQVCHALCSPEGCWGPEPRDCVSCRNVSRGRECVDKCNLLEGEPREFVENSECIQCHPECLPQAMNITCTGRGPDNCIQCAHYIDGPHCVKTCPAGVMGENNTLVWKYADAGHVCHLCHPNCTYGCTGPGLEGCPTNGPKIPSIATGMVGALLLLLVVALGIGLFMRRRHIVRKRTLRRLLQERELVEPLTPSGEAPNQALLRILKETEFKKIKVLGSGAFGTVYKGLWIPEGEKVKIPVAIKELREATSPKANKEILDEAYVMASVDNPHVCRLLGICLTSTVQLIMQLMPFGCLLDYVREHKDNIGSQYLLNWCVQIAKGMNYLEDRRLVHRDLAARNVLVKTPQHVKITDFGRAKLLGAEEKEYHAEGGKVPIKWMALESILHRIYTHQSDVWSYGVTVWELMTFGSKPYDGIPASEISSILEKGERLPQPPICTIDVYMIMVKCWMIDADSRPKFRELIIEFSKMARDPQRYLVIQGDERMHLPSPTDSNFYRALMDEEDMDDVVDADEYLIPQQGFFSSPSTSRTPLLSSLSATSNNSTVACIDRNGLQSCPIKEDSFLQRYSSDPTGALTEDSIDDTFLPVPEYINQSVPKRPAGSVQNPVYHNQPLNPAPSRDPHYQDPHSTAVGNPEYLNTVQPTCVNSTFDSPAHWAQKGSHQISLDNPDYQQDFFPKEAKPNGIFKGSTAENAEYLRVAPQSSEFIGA
Test: Kinase profiling in a biochemical assay panel (mobility shift assays and ELISA), %-inhibition at 1 μM; selectivity entropy
Measurement Setup: kinase EGFR(T790M/L858R); compound at 1 μM
Field: %-inhibition of EGFR(T790M/L858R). Provide a value for each of the compounds that follow.
# unit: % | format: bare number

// query So what's the measured %-inhibition of EGFR(T790M/L858R) for this one? CNC(=O)c1cc(Oc2ccc(NC(=O)Nc3ccc(Cl)c(C(F)(F)F)c3)c(F)c2)ccn1
// result 1.68

// query Reported %-inhibition of EGFR(T790M/L858R), compound CO[C@H]1C[C@@H]2CC[C@@H](C)[C@@](O)(O2)C(=O)C(=O)N2CCCC[C@H]2C(=O)O[C@H]([C@H](C)C[C@@H]2CC[C@@H](OCCO)[C@H](OC)C2)CC(=O)[C@H](C)/C=C(\C)[C@@H](O)[C@@H](OC)C(=O)[C@H](C)C[C@H](C)/C=C/C=C/C=C/1C : ____
// result -5

// query Would you mind telling me what %-inhibition of EGFR(T790M/L858R) value was observed for CC(=O)Nc1cccc(-n2c(=O)n(C3CC3)c(=O)c3c(Nc4ccc(I)cc4F)n(C)c(=O)c(C)c32)c1 ?
// result -6.51

// query Given the entry CO[C@H]1C[C@@H]2CC[C@@H](C)[C@@](O)(O2)C(=O)C(=O)N2CCCC[C@H]2C(=O)O[C@H]([C@H](C)C[C@@H]2CC[C@@H](OC(=O)C(C)(CO)CO)[C@H](OC)C2)CC(=O)[C@H](C)/C=C(\C)[C@@H](O)[C@@H](OC)C(=O)[C@H](C)C[C@H](C)/C=C/C=C/C=C/1C , report its measured %-inhibition of EGFR(T790M/L858R).
// result -2.75

// query Looking for the measured %-inhibition of EGFR(T790M/L858R) of COc1cc2nccc(Oc3ccc(NC(=O)C4(C(=O)Nc5ccc(F)cc5)CC4)cc3)c2cc1OC [cabozantinib] , can you help?
// result 29

// query Consider the compound Cc1ccc(Nc2nccc(N(C)c3ccc4c(C)n(C)nc4c3)n2)cc1S(N)(=O)=O and give its measured %-inhibition of EGFR(T790M/L858R).
// result 43

// query Value lookup for %-inhibition of EGFR(T790M/L858R); key = CCCS(=O)(=O)Nc1ccc(F)c(C(=O)c2c[nH]c3ncc(-c4ccc(Cl)cc4)cc23)c1F
// result 5

// query Reported %-inhibition of EGFR(T790M/L858R) for N#CC[C@H](C1CCCC1)n1cc(-c2ncnc3[nH]ccc23)cn1 : what is it?
// result -0.336

====

Target System: panel of more than 300 wild-type and mutant kinases (313 kinase panel) (Homo sapiens)
Test: Kinase profiling in a biochemical assay panel (mobility shift assays and ELISA), %-inhibition at 1 μM; selectivity entropy
Measurement Setup: kinase PKCγ; 1 μM
Measurement Label: %-inhibition of PKCγ (%)
Reply numerically in %, unit not repeated.

// query # query: %-inhibition of PKCγ | item CNC(=O)c1cc(Oc2ccc(NC(=O)Nc3ccc(Cl)c(C(F)(F)F)c3)c(F)c2)ccn1 | system: panel of more than 300 wild-type and mutant kinases (313 kinase panel) (Homo sapiens)
// result -8

// query Under panel of more than 300 wild-type and mutant kinases (313 kinase panel) (Homo sapiens): %-inhibition of PKCγ value of CS(=O)(=O)CCNCc1ccc(-c2ccc3ncnc(Nc4ccc(OCc5cccc(F)c5)c(Cl)c4)c3c2)o1 ?
// result -0.202

// query Please state recorded %-inhibition of PKCγ (tested on panel of more than 300 wild-type and mutant kinases (313 kinase panel) (Homo sapiens)) of CO[C@H]1C[C@@H]2CC[C@@H](C)[C@@](O)(O2)C(=O)C(=O)N2CCCC[C@H]2C(=O)O[C@H]([C@H](C)C[C@@H]2CC[C@@H](OCCO)[C@H](OC)C2)CC(=O)[C@H](C)/C=C(\C)[C@@H](O)[C@@H](OC)C(=O)[C@H](C)C[C@H](C)/C=C/C=C/C=C/1C
// result -6.56

====

Target System: panel of more than 300 wild-type and mutant kinases (313 kinase panel) (Homo sapiens, UniProt O75582)
Test: Kinase profiling in a biochemical assay panel (mobility shift assays and ELISA), %-inhibition at 1 μM; selectivity entropy
Measurement Setup: kinase MSK1; 1 μM
Measurement Label: %-inhibition of MSK1 (%)
Numbers only here, please. The scale is %.

// query %-inhibition of MSK1 for COc1cc2c(Nc3ccc(Br)cc3F)ncnc2cc1OCC1CCN(C)CC1 [vandetanib] ?
// result -0.384

// query Report %-inhibition of MSK1 for Cc1cn(-c2cc(NC(=O)c3ccc(C)c(Nc4nccc(-c5cccnc5)n4)c3)cc(C(F)(F)F)c2)cn1 [nilotinib] please.
// result 2.48

// query Endpoint output: %-inhibition of MSK1 of Cc1ccc(Nc2nccc(N(C)c3ccc4c(C)n(C)nc4c3)n2)cc1S(N)(=O)=O [pazopanib] . Value?
// result 0.901

// query Any idea what its %-inhibition of MSK1 is? The compound is O=S(=O)(c1cccc2cnccc12)N1CCCNCC1 [fasudil]
// result 37

// query Could you tell me which %-inhibition of MSK1 is on file for CS(=O)(=O)CCNCc1ccc(-c2ccc3ncnc(Nc4ccc(OCc5cccc(F)c5)c(Cl)c4)c3c2)o1 [lapatinib] ?
// result 7

====

Target System: panel of more than 300 wild-type and mutant kinases (313 kinase panel) (Homo sapiens, UniProt Q13163)
Sequence (Q13163 1-448): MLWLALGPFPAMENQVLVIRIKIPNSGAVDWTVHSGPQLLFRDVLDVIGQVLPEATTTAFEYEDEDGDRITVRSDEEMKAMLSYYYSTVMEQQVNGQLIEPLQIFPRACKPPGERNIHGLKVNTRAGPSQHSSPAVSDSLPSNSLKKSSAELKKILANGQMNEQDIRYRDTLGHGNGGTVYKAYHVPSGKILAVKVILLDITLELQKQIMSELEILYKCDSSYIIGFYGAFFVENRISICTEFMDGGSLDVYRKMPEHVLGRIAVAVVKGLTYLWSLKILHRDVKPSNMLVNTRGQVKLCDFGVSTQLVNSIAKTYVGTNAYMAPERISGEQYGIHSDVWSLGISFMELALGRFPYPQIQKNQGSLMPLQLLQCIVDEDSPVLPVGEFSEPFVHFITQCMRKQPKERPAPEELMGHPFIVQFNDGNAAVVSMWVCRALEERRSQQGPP
Test: Kinase profiling in a biochemical assay panel (mobility shift assays and ELISA), %-inhibition at 1 μM; selectivity entropy
Measurement Setup: kinase MAP2K5; compound at 1 μM
Please respond with reported %-inhibition of MAP2K5 for every item in the list.

// query Using the record for Cc1cn(-c2cc(NC(=O)c3ccc(C)c(Nc4nccc(-c5cccnc5)n4)c3)cc(C(F)(F)F)c2)cn1 [nilotinib] , report its %-inhibition of MAP2K5.
// result -7.56%

// query I am curious: what %-inhibition of MAP2K5 value has been reported for CO[C@H]1C[C@@H]2CC[C@@H](C)[C@@](O)(O2)C(=O)C(=O)N2CCCC[C@H]2C(=O)O[C@H]([C@H](C)C[C@@H]2CC[C@@H](OCCO)[C@H](OC)C2)CC(=O)[C@H](C)/C=C(\C)[C@@H](O)[C@@H](OC)C(=O)[C@H](C)C[C@H](C)/C=C/C=C/C=C/1C [everolimus] ?
// result 1.34%

// query Item CCCS(=O)(=O)Nc1ccc(F)c(C(=O)c2c[nH]c3ncc(-c4ccc(Cl)cc4)cc23)c1F [vemurafenib] has what recorded %-inhibition of MAP2K5?
// result 32%

// query Dear colleague, I am looking for the recorded %-inhibition of MAP2K5 of the following compound: CC(=O)Nc1cccc(-n2c(=O)n(C3CC3)c(=O)c3c(Nc4ccc(I)cc4F)n(C)c(=O)c(C)c32)c1 [trametinib]
// result 13%

// query Item Cc1ccc(C(=O)Nc2ccc(CN3CCN(C)CC3)c(C(F)(F)F)c2)cc1C#Cc1cnc2cccnn12 [ponatinib] has what recorded %-inhibition of MAP2K5?
// result 61%

// query # %-inhibition of MAP2K5 lookup, item C[C@@H](Oc1cc(-c2cnn(C3CCNCC3)c2)cnc1N)c1c(Cl)ccc(F)c1Cl [crizotinib]
// result 24%

// query Give its %-inhibition of MAP2K5 value. Item: CS(=O)(=O)CCNCc1ccc(-c2ccc3ncnc(Nc4ccc(OCc5cccc(F)c5)c(Cl)c4)c3c2)o1 [lapatinib]
// result 1.63%

// query Consider the compound CNC(=O)c1cc(Oc2ccc(NC(=O)Nc3ccc(Cl)c(C(F)(F)F)c3)c(F)c2)ccn1 [regorafenib] and give its measured %-inhibition of MAP2K5.
// result 17%

// query Can you look up the measured %-inhibition of MAP2K5 of CC(C)(C)c1nc(-c2cccc(NS(=O)(=O)c3c(F)cccc3F)c2F)c(-c2ccnc(N)n2)s1 [dabrafenib] for me?
// result 70%

// query Data request, read-out %-inhibition of MAP2K5, for Cc1ccc(Nc2nccc(N(C)c3ccc4c(C)n(C)nc4c3)n2)cc1S(N)(=O)=O [pazopanib]
// result 13%

// query Which measured %-inhibition of MAP2K5 value corresponds to O=S(=O)(c1cccc2cnccc12)N1CCCNCC1 [fasudil] ?
// result 13%

// query For the compound CO[C@H]1C[C@@H]2CC[C@@H](C)[C@@](O)(O2)C(=O)C(=O)N2CCCC[C@H]2C(=O)O[C@H]([C@H](C)C[C@@H]2CC[C@@H](OC(=O)C(C)(CO)CO)[C@H](OC)C2)CC(=O)[C@H](C)/C=C(\C)[C@@H](O)[C@@H](OC)C(=O)[C@H](C)C[C@H](C)/C=C/C=C/C=C/1C [temsirolimus] , what %-inhibition of MAP2K5 is on record?
// result -1.51%

// query Can you look up the measured %-inhibition of MAP2K5 of N#CC[C@H](C1CCCC1)n1cc(-c2ncnc3[nH]ccc23)cn1 [ruxolitinib] for me?
// result 7%

// query If you can, please state the reported %-inhibition of MAP2K5 value of COc1cc2nccc(Oc3ccc(NC(=O)C4(C(=O)Nc5ccc(F)cc5)CC4)cc3)c2cc1OC [cabozantinib] .
// result 17%

// query Reported %-inhibition of MAP2K5 for COc1cc2c(Nc3ccc(Br)cc3F)ncnc2cc1OCC1CCN(C)CC1 [vandetanib] : what is it?
// result 43%

// query Any idea what its %-inhibition of MAP2K5 is? The compound is COc1cc(Nc2c(C#N)cnc3cc(OCCCN4CCN(C)CC4)c(OC)cc23)c(Cl)cc1Cl [bosutinib]
// result 63%
